Would you mind telling me the reported pIC50 of each entry?
# Tested on: HTT mRNA
# protocol_notes: Gene panel canonical junction qPCR assay, decrease in CJ mRNA, Table 3
# Format: cell-based
# condition: decrease in CJ mRNA levels, canonical junction qPCR, gene panel
pIC50: −log10 of the molar value.

Prompt line: Would you kindly share the measured pIC50 for COc1cc2c(N3CCC(NC4CC4)CC3)ccc(C(=O)Nc3cn4cc(C)nc4c(F)c3OC)n2n1 [Compound 688] ?
Response line: > 7.00

Prompt line: Endpoint output: pIC50 of COc1cc2nn(C)cc2cc1NC(=O)c1c(Cl)cc(N2CCC(NC3CC3)CC2)n2cc(C)nc12 [Compound 627, 2,2,2-trifluoroacetate] . Value?
Response line: < 5.00

Prompt line: Requested field: pIC50. Item: COc1nc2c(C(=O)Nc3cc(F)c4nn(C)cc4c3)ccc(N3C[C@@H](C)N[C@H](C)C3)c2s1 [Compound 719]
Response line: 5.00 to 6.00

Prompt line: Record request: pIC50 value, item C=CCNC1CCN(c2ccc(C(=O)Nc3cc(CO)c4nn(C)cc4c3)c3nn(C)cc23)CC1 [Compound 794]
Response line: < 5.00

Prompt line: Consider the compound COc1nc2c(C(=O)Nc3cc(F)c4nn(C)cc4c3)ccc(N3CCC4(CCCN4)CC3)c2s1 [Compound 768] and give its measured pIC50.
Response line: > 7.00

Prompt line: Entry under review: Cc1cn2cc(NC(=O)c3ccc(N4CCC(NC5CC5)CC4)c4cn(C)nc34)nc2c(CNC(=N)N)n1 [Compound 754, bis(2,2,2-trifluoroacetate)] . Reported pIC50?
Response line: < 5.00

Prompt line: What value of pIC50 has been recorded for this entry: Cc1cn2cc(NC(=O)c3ccc(N4CCNCC4)c4cn(C)nc34)nc2c(CNS(C)(=O)=O)n1 [Compound 811]
Response line: < 5.00

Prompt line: pIC50 lookup needed for CC(=O)NCc1cc(NC(=O)c2ccc(N3CCC(NC4CC4)CC3)c3cn(C)nc23)cc2cn(C)nc12 [Compound 779] , thanks.
Response line: < 5.00

Prompt line: Look up pIC50 for this compound: COc1cc2nn(C)cc2cc1NC(=O)c1c(F)cc(N2CCC(NC3CC3)CC2)c2cc(C)nn12 [Compound 624]
Response line: < 5.00

Prompt line: pIC50 lookup needed for COc1nc2c(C(=O)Nc3cn4c(C)nc(C)cc4n3)ccc(N3C[C@H](C)N[C@@H](C)C3)c2s1 [Compound 782] , thanks.
Response line: < 5.00

Prompt line: Consider the compound COc1nc2c(C(=O)Nc3cc(F)c4nn(C)nc4c3)ccc(N3C[C@H](C)N[C@@H](C)C3)c2s1 [Compound 756] and give its measured pIC50.
Response line: 6.00 to 7.00

Prompt line: Which pIC50 is listed for COc1nc2c(C(=O)Nc3cc(F)c4nn(C)cc4c3)ccc(N3CC(C)NCC3C)c2s1 (stereo not shown) [Compound 772] ?
Response line: < 5.00

Prompt line: Which pIC50 is listed for Cc1cn2cc(NC(=O)c3ccc(N4CCC(NC5CC5)CC4)c4cn(C)nc34)nc2c(Cc2cnc(Cl)s2)n1 [Compound 781] ?
Response line: < 5.00

Prompt line: # pIC50 lookup, item COc1nc2c(C(=O)Nc3cc4cn(C)nc4cc3O)ccc(N3C[C@H](C)N[C@@H](C)C3)c2s1 [Compound 728]
Response line: < 5.00

Prompt line: Using the record for CCNC1CCN(c2cc(F)c(C(=O)Nc3cn4ccnc4nc3OC)c3nn(C)cc23)CC1 [Compound 692] , report its pIC50.
Response line: 5.00 to 6.00

Prompt line: Which pIC50 value is on record for Cn1cc2cc(NC(=O)c3c(O)cc(N4CCC(NC5CC5)CC4)c4cn(C)nc34)cc(CNS(C)(=O)=O)c2n1 [Compound 852] ?
Response line: < 5.00

Prompt line: Form field: reported pIC50 of CCNC1CCN(c2ccc(C(=O)Nc3cn4cc(C)nc(CNS(C)(=O)=O)c4n3)c3nn(C)cc23)CC1 [Compound 884]
Response line: < 5.00

Prompt line: # query: pIC50 of entry CCNC1C(C)CN(c2ccc(C(=O)Nc3cc4cn(C)nc4cc3OC)c3nn(C)cc23)CC1C (stereo not shown) [Compound 687]
Response line: < 5.00

Prompt line: Looking for the measured pIC50 of COc1cc2nn(C)cc2cc1NC(=O)c1cc(C)c(N2CCC(NC3CC3)CC2)c2cn(C)nc12 [Compound 696] , can you help?
Response line: < 5.00

Prompt line: Quick check: pIC50 of Cn1cc2cc(NC(=O)c3cc(F)c(N4CCC(NC5CC5)CC4)c4cn(C)nc34)cc(F)c2n1 [Compound 708] ?
Response line: < 5.00

Prompt line: # pIC50 lookup, item COc1cc2c(N3CCC(NC4CC4)CC3)ccc(C(=O)Nc3cn4cc(C)nc(CNS(C)(=O)=O)c4n3)n2n1 [Compound 806]
Response line: < 5.00

Prompt line: // query pIC50 value for entry COc1nc2c(C(=O)Nc3ccc4c(c3)OCCO4)ccc(N3C[C@H](C)N[C@@H](C)C3)c2s1 [Compound 716]
Response line: 5.00 to 6.00

Prompt line: Param item = CCNC1CCN(c2ccc(C(=O)Nc3cn4ccnc(CNS(C)(=O)=O)c4n3)c3nn(C)cc23)CC1 [Compound 850] ; retrieve measured pIC50.
Response line: < 5.00

Prompt line: # lookup: pIC50 of COc1nc2c(C(=O)Nc3ccc4nn(C)cc4c3)ccc(N3C[C@H](C)N[C@@H](C)C3)c2s1 [Compound 800]
Response line: 6.00 to 7.00

Prompt line: State the recorded pIC50 for this entry: Cc1nc2c(C(=O)Nc3cc(F)c4nn(C)cc4c3)ccc(N3C[C@H](C)N[C@@H](C)C3)c2s1 [Compound 780]
Response line: 6.00 to 7.00

* * *

# System: HTT mRNA
# protocol_notes: Splicing RT-qPCR assay, canonical (CJ) and alternative (AJ) junction mRNA, K562 cells
# Format: cell-based
# condition: Homo sapiens, K562.3 cells, 24 hours, read-out: HTT AJ (AC50, increase in AJ mRNA)
What AC50 was measured for each of the following?

Prompt line: Can you look up AC50 on HTT mRNA for CCNC1CCN(c2ccc(C(=O)Nc3cc(F)c4nc(C)cn4c3)c3[nH]ncc23)CC1 [Compound 266] ?
Response line: > 10 µM

Prompt line: Query AC50 on HTT mRNA for COc1c(NC(=O)c2ncc(N3CCNCC3)c3cn[nH]c23)cn2cc(C)nc2c1F [Compound 606]
Response line: > 10 µM

Prompt line: So what AC50 did COCC1(N[C@H]2CCN(c3ccc(C(=O)Nc4cc(F)c5nc(C)cn5c4)c4nn(C)cc34)C2)CC1 [Compound 118] get with HTT mRNA?
Response line: > 10 µM

Prompt line: Quick check: AC50 on HTT mRNA, item CCNC1CCN(c2ccc(C(=O)Nc3cc(F)c4nc(C)cn4c3)c3nn(C)nc23)CC1 [Compound 196] ?
Response line: 0.1 to 1 µM

Prompt line: Which AC50 is reported with HTT mRNA for this entry: Cc1cn2cc(NC(=O)c3ccc(N4C[C@H](C)N[C@@H](C)C4)c4[nH]nnc34)cc(F)c2n1 [Compound 242] ?
Response line: > 10 µM

Prompt line: Please provide the recorded AC50 for CN[C@H]1C[C@@H](C)N(c2ccc(C(=O)Nc3cc(F)c4nc(C)cn4c3)c3nn(C)cc23)C1 (single isomer, unassigned) [Compound 128] , tested on HTT mRNA.
Response line: 1 to 10 µM

Prompt line: // lookup AC50 | system=HTT mRNA | key= CN[C@H]1CCN(c2ccc(C(=O)Nc3cc(F)c4nc(C)cn4c3)c3c2nnn3C)C1 [Compound 160]
Response line: > 10 µM

Prompt line: # value lookup — system HTT mRNA, readout AC50, item CN[C@@H]1CN(c2ccc(C(=O)Nc3cc(F)c4nc(C)cn4c3)c3nn(C)cc23)C[C@H]1C [Compound 107]
Response line: > 10 µM

Prompt line: Lookup: AC50 / HTT mRNA / CCNC1CCN(c2ccc(C(=O)Nc3cc(F)c4nc(COC)cn4c3)c3nn(C)cc23)CC1 [Compound 284]
Response line: > 10 µM

* * *

# System: HTT mRNA
# protocol_notes: Splicing RT-qPCR assay (THP), Table 2A
# Type: cell-based
# condition: Table 2A (THP), CJ mRNA decrease, read-out: HTT CJ (decrease in canonical junction mRNA, IC50)
Counter-ions that a name gives are not always drawn.
Field: IC50. Provide a value for each of the compounds that follow.

Prompt line: Could you share which IC50 value was measured for Cc1cn2cc(NC(=O)c3ccc(N4CCNCC4=O)c4cn(C)nc34)cc(F)c2n1 [Compound 251, 2,2,2-trifluoroacetate] ?
Response line: > 10000 nM

Prompt line: Requested read-out: IC50. Entry: `Cc1cn2cc(NC(=O)c3c(F)cc(N4CCC(NC5CC5)CC4)c4cn(C)nc34)c(OCC3CC3)c(F)c2n1`
Response line: 100 to 1000 nM

Prompt line: Query: IC50; subject: `COc1c(NC(=O)c2c(F)cc(N3CCC(NC4CC4)CC3)c3cn(C)nc23)cn2cc(C)nc(C)c12`
Response line: > 10000 nM

Prompt line: Record request: IC50 value, item Cc1cn2cc(NC(=O)c3ccc(N4CCC(N[C@@H]5C[C@@H]5O)CC4)c4cn(C)nc34)cc(F)c2n1 [Compound 371, hydrochloride]
Response line: 1000 to 10000 nM

Prompt line: // query IC50 value for entry `COc1cc2nn(C)cc2cc1NC(=O)c1ccc(N2CCN(C3CNC3)CC2)c2cn(C)nc12`
Response line: 100 to 1000 nM

Prompt line: Looking for the measured IC50 of `COc1c(NC(=O)c2c(F)cc(N3CCC(NC45CC(C4)C5)CC3)c3cn(C)nc23)cn2cc(C)nc2c1F` , can you help?
Response line: 100 to 1000 nM
